tested on: CEM/VM-1-5 cells (MDR+); experiment: cells; assay type: cell-based, human; settings: IC50 of the resistant line divided by IC50 of sensitive CEM cells
Here, each record is paired with measured Degree of resistance (CEM/VM-1-5) data.
EXPERIMENTAL_READOUT: Degree of resistance (CEM/VM-1-5)

[[record]]
compound = "COC(=O)[C@@]12OC[C@]34[C@H]([C@@H](O)[C@@H]1O)[C@@]1(C)CC(=O)C(O)=C(C)[C@@H]1C[C@H]3OC(=O)C(OC(=O)CC1(O)CCCCC1)[C@@H]24 (some centres unmarked)"
study_target = "CEM/VM-1-5 cells (MDR+)"
reported_value = 3

[[record]]
compound = "CCCCCCCCCCCCCCCC1OCC(COC(=O)OC2=C(C)[C@@H]3C[C@H]4OC(=O)C(OC(=O)CC5(O)CCCCC5)[C@H]5[C@]6(C(=O)OC)OC[C@]45[C@H]([C@@H](O)[C@@H]6O)[C@@]3(C)CC2=O)O1 (some centres unmarked)"
study_target = "CEM/VM-1-5 cells (MDR+)"
reported_value = 1.2

[[record]]
compound = "CC(=O)O[C@H]1C(=O)[C@@]2(C)[C@H]([C@H](OC(=O)c3ccccc3)[C@]3(O)C[C@H](OC(=O)[C@H](O)[C@@H](NC(=O)c4ccccc4)c4ccccc4)C(C)=C1C3(C)C)[C@]1(OC(C)=O)CO[C@@H]1C[C@@H]2O [Paclitaxel, paclitaxel, reference compound]"
study_target = "CEM/VM-1-5 cells (MDR+)"
reported_value = 4

[[record]]
compound = "CCCCCCCCCCCCCCCC1OCC(COC(=O)O[C@@H]2C(=O)C=C(C)[C@@H]3C[C@H]4OC(=O)C(OC(=O)CC(O)(C(C)C)C(C)C)C5[C@@H](C)[C@@H](O)[C@@]6(O)OC[C@@]54C6[C@@]23C)O1 (some centres unmarked)"
study_target = "CEM/VM-1-5 cells (MDR+)"
reported_value = 2

[[record]]
compound = "CC[C@]1(O)C[C@@H]2CN(CCc3c([nH]c4ccccc34)[C@@](C(=O)OC)(c3cc4c(cc3OC)N(C)[C@H]3[C@@](O)(C(=O)OC)[C@H](OC(C)=O)[C@]5(CC)C=CCN6CC[C@]43[C@@H]65)C2)C1 [Vinblastine, vinblastine, reference compound]"
study_target = "CEM/VM-1-5 cells (MDR+)"
reported_value = 1.2

